Item-by-item account of solubility
Assay: Solubility (Test F)
Assay type: physicochemical
Settings: arithmetic mean if run multiple times

Molecule	solubility
COc1cc(F)c(CC2CCC(C)(C(=O)O)CC2)cc1C(=O)NC1C2CCC(C2)C1C(=O)NCC1(C)CCC1 (stereo not shown) [Example 205]	180 µM
COc1cc(Br)c(O[C@H]2CC[C@@H](C(=O)O)CC2)cc1C(=O)N[C@@H]1[C@H]2CC[C@H](C2)[C@@H]1C(=O)Nc1cccc(S(=O)(=O)C(F)(F)F)c1 [Example 464]	200 µM
COc1cc(F)c(Cc2cn[nH]c2)cc1C(=O)N[C@@H]1[C@H]2CC[C@H](C2)[C@@H]1C(=O)Nc1cccc(S(=O)(=O)C(F)(F)F)c1 [Example 219]	5 µM
COc1cc(F)c(-c2cccc(C(=O)O)c2)cc1C(=O)N[C@H]1[C@@H](C(=O)Nc2cccc(S(=O)(=O)C(F)(F)F)c2)[C@@H]2C=C[C@H]1C2 (single isomer, unassigned) [Example 554]	700 µM
COc1cc(C#N)c(O[C@H]2CC[C@@](C)(C(=O)O)CC2)cc1C(=O)N[C@@H]1[C@H]2CC[C@H](C2)[C@@H]1C(=O)NC1(C2CC2)CC1 [Example 112]	830 µM
COc1cc(F)c(O[C@H]2CC[C@@H](C(N)=O)CC2)cc1C(=O)N[C@@H]1[C@H]2CC[C@H](C2)[C@@H]1C(=O)Nc1ccc(F)c(C(F)(F)F)c1 [Example 500]	8 µM
COc1cc(Cl)c(O[C@H]2CC[C@@](C)(C(=O)O)CC2)cc1C(=O)N[C@@H]1[C@H]2CC[C@H](C2)[C@@H]1C(=O)NC12CC(F)(C1)C2 [Example 411]	710 µM
COc1cc(F)c(O[C@H]2CC[C@@](C)(C(=O)O)CC2)cc1C(=O)N[C@@H]1CCC[C@@H]1C(=O)N[C@@H](C)C(C)(C)C [Example 61]	> 1000 µM
COc1cc(F)c(O[C@H]2CC[C@@H](C(=O)O)CC2)cc1C(=O)N[C@@H]1[C@H]2CC[C@H](C2)[C@@H]1C(=O)Nc1ccc(Br)c(C(F)(F)F)c1 [Example 23]	8.7 µM
COc1cc(F)c(OCCCCCCC(=O)O)cc1C(=O)N[C@@H]1[C@H]2CC[C@H](C2)[C@@H]1C(=O)Nc1cccc(S(=O)(=O)C(F)(F)F)c1 [Example 436]	220 µM
COc1cc(F)c(O[C@H]2CC[C@@](C)(C(=O)O)CC2)cc1C(=O)N[C@@H]1[C@H]2CC[C@H](C2)[C@@H]1C(=O)NCC1(C)CC1 [Example 41]	820 µM
COc1cc(F)c(-c2cccc(C(=O)O)c2)cc1C(=O)N[C@@H]1[C@H](C(=O)Nc2cccc(S(=O)(=O)C(F)(F)F)c2)[C@H]2C=C[C@@H]1C2 (single isomer, unassigned) [Example 555]	560 µM
COc1cc(F)c(OCCCCCC(=O)O)cc1C(=O)N[C@@H]1[C@H]2CC[C@H](C2)[C@@H]1C(=O)Nc1cccc(S(=O)(=O)C(F)(F)F)c1 [Example 435]	880 µM
COc1cc(F)c(OC2CCC(C)(C(=O)O)CC2)cc1C(=O)NC1C2CCC(CC2)C1C(=O)NCC1(C)CCC1 (single isomer, unassigned) [Example 542]	800 µM
COc1cc(F)c(O[C@H]2CC[C@@H](C(=O)O)CC2)cc1C(=O)N[C@H]1[C@@H](C(=O)Nc2ccc(OC)c(S(=O)(=O)C(F)(F)F)c2)[C@@H]2C=C[C@H]1C2 [Example 497]	> 1000 µM
COc1cc(F)c(O[C@H]2CC[C@@H](C(=O)O)CC2)cc1C(=O)N[C@@H]1[C@H]2CC[C@H](C2)[C@@H]1C(=O)Nc1cccc(CF)c1 [Example 11]	> 1000 µM
COc1cc(F)c(O[C@H]2CC[C@@H](C(=O)O)CC2)cc1C(=O)N[C@@H]1[C@H]2CC[C@H](C2)[C@@H]1C(=O)NCC1(C)CC1 [Example 198]	920 µM
COc1cc(F)c(O[C@H]2CC[C@@H](C(=O)O)CC2)cc1C(=O)N[C@@H]1[C@H]2CC[C@H](C2)[C@@H]1C(=O)N[C@@H](C)C(C)(C)C [Example 199]	1000 µM
CC1(CNC(=O)[C@H]2[C@@H]3CC[C@@H](C3)[C@H]2NC(=O)c2cc(O[C@H]3CC[C@@](C)(C(=O)O)CC3)c(F)cc2F)CCC1 [Example 393]	53 µM
COc1cc(F)c(-c2cccc(CC(=O)O)c2)cc1C(=O)N[C@H]1[C@@H](C(=O)Nc2cccc(S(=O)(=O)C(F)(F)F)c2)[C@@H]2C=C[C@H]1C2 (racemic) [Example 281]	11 µM
COc1cc(F)c(O[C@H]2CC[C@@H](C(=O)O)CC2)cc1C(=O)N[C@@H]1[C@H]2CC[C@H](C2)[C@@H]1C(=O)Nc1cccc(C(C)C)c1 [Example 196]	290 µM
CCC(C)CNC(=O)C1C2CCC(C2)C1NC(=O)c1cc(OC2CCC(C(=O)O)CC2)c(F)cc1OC (single isomer, unassigned) [Example 202]	890 µM

====

Assay: Human Plasma Protein Binding (Test B)
Type: in vitro ADME
Conditions: fraction unbound (fu)
Item-by-item account of Test B Human Plasma Protein Binding (% free)
Measured Parameter: Test B Human Plasma Protein Binding (% free)

Structure Smiles String	Numeric Readout
COc1cc(C#N)c(O[C@H]2CC[C@@](C)(C(=O)O)CC2)cc1C(=O)N[C@@H]1[C@H]2CC[C@H](C2)[C@@H]1C(=O)NC12CC3C[C@H](C1)C[C@H](C3)C2	2.7
COc1cc(F)c(Cc2cn[nH]c2)cc1C(=O)N[C@@H]1[C@H]2CC[C@H](C2)[C@@H]1C(=O)Nc1cccc(S(=O)(=O)C(F)(F)F)c1	0.19
COc1cc(C#N)c(O[C@H]2CC[C@@](C)(C(=O)O)CC2)cc1C(=O)N[C@@H]1[C@H]2CC[C@H](C2)[C@@H]1C(=O)NCC1(C(C)C)CC1	6.9

====

Molecular target: human RXFP1 (Homo sapiens)
Sequence (Q9HBX9 whole entry): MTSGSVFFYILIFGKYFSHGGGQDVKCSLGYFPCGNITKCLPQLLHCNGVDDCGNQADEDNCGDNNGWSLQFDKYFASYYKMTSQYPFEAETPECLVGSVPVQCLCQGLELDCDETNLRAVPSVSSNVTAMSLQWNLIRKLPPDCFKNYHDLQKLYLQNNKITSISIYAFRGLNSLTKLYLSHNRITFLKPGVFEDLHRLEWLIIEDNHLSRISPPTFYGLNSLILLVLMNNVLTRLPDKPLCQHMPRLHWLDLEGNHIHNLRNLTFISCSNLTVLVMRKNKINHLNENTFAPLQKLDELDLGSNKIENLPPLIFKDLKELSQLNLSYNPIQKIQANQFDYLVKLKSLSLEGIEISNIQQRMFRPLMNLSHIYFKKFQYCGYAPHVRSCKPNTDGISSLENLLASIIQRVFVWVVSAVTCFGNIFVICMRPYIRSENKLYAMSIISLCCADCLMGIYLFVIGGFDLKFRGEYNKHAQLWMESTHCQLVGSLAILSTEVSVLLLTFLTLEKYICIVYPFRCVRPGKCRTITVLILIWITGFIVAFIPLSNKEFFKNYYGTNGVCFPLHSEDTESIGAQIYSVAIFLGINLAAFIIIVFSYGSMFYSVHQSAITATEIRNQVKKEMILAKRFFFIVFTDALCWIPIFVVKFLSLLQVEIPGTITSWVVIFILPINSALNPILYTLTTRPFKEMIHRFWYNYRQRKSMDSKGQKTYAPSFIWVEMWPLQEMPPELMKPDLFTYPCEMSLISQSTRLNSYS
Assay: RXFP1 Hu cAMP (Test A)
Type: cell-based
Set-up: expressed in transfected cells; host or cells: Jump-In T-REx CHO-K1 cells (ThermoFisher), induced with 10 ng/ml doxycycline for 24 h
Conditions: RXFP1 Hu cAMP; read-out: Test A EC50
Measured Parameter: EC50 (nM)

Compound	Study System	Measured Parameter	Reported Relation	Numeric Readout
COc1cc(F)c(O[C@H]2CC[C@@](OC)(C(=O)O)CC2)cc1C(=O)N[C@@H]1[C@H]2CC[C@H](C2)[C@@H]1C(=O)NCC1(C)CCC1	human RXFP1 (Homo sapiens)	EC50	=	320
COc1cc(F)c(O[C@H]2CC[C@@H](C(=O)O)CC2)cc1C(=O)N[C@@H]1[C@H]2CC[C@H](C2)[C@@H]1C(=O)NCCC1CC1	human RXFP1 (Homo sapiens)	EC50	>	4300
COc1cc(F)c(O[C@H]2CC[C@@H](C(=O)O)CC2)cc1C(=O)N[C@@H]1[C@H]2CC[C@H](C2)[C@@H]1C(=O)Nc1cc(F)cc(C(F)(F)F)c1	human RXFP1 (Homo sapiens)	EC50	=	110
COc1cc(F)c(-c2ccc(C(=O)O)cc2)cc1C(=O)N[C@H]1[C@@H](C(=O)Nc2cccc(S(=O)(=O)C(F)(F)F)c2)[C@@H]2C=C[C@H]1C2 (single isomer, unassigned) [Example 552]	human RXFP1 (Homo sapiens)	EC50	=	140
COc1cc(Br)c(O[C@H]2CC[C@@H](C(=O)O)CC2)cc1C(=O)N[C@@H]1[C@H]2CC[C@H](C2)[C@@H]1C(=O)Nc1cccc(S(=O)(=O)C(F)(F)F)c1	human RXFP1 (Homo sapiens)	EC50	=	64

====

Experiment: Rat Hepatocyte Stability (Test E)
Type: in vitro ADME
Conditions: rat, hepatocytes, geometric mean if run multiple times
Categories are defined by ranges of hepatocyte CLint, namely class A (below 20 µL/min/1e6 cells), class B (20 µL/min/1e6 cells to below 40 µL/min/1e6 cells), class C (40 µL/min/1e6 cells or more)

Molecule	Assigned Category
COc1cc(F)c(O[C@H]2CC[C@@H](C(=O)O)CC2)cc1C(=O)N[C@@H]1[C@H]2CC[C@H](C2)[C@@H]1C(=O)Nc1cc(C)cc(C(F)(F)F)c1	class B
COc1cc(C#N)c(O[C@H]2CC[C@@H](C(=O)O)CC2)cc1C(=O)N[C@@H]1[C@H]2CC[C@H](C2)[C@@H]1C(=O)Nc1cccc(S(=O)(=O)C(F)(F)F)c1	class C
CCC(CC)CNC(=O)[C@H]1CCC[C@H]1NC(=O)c1cc(O[C@H]2CC[C@@](C)(C(=O)O)CC2)c(F)cc1OC	class B
COc1cc(F)c(-c2ccc(C[C@@H](C(=O)O)N(C)C)cc2)cc1C(=O)N[C@@H]1[C@H]2CC[C@H](C2)[C@@H]1C(=O)Nc1cccc(S(=O)(=O)C(F)(F)F)c1 (racemic)	class A
COc1cc(F)c(-c2ccc(C[C@H](C(=O)O)N(C)C)cc2)cc1C(=O)N[C@@H]1[C@H]2CC[C@H](C2)[C@@H]1C(=O)Nc1cccc(S(=O)(=O)C(F)(F)F)c1	class A
COc1cc(C#N)c(O[C@H]2CC[C@@](C)(C(=O)O)CC2)cc1C(=O)N[C@@H]1[C@H]2CC[C@H](C2)[C@@H]1C(=O)NCC1C(C)(C)C1(C)C	class A
COc1cc(F)c(-c2ccc(F)c(C(=O)O)c2)cc1C(=O)N[C@H]1[C@@H](C(=O)Nc2cccc(S(=O)(=O)C(F)(F)F)c2)[C@@H]2C=C[C@H]1C2 (racemic)	class A
COc1cc(F)c(OCCCCCC(=O)O)cc1C(=O)N[C@@H]1[C@H]2CC[C@H](C2)[C@@H]1C(=O)Nc1cccc(S(=O)(=O)C(F)(F)F)c1	class C
COc1cc(F)c(O[C@H]2CC[C@@H](C(=O)O)CC2)cc1C(=O)N[C@@H]1[C@H](C(=O)Nc2ccc(F)c(C(F)(F)F)c2)[C@@H]2CC[C@H]1O2	class A
Cc1cc(F)c(O[C@H]2CC[C@@](C)(C(=O)O)CC2)cc1C(=O)N[C@@H]1[C@H]2CC[C@H](C2)[C@@H]1C(=O)NCC1(C)CCC1	class A
COc1cc(F)c(O[C@H]2CC[C@@](C)(C(=O)O)CC2)cc1C(=O)N[C@@H]1[C@H]2CC[C@H](C2)[C@@H]1C(=O)NCC(C)C	class A
COc1cc(F)c(O[C@H]2CC[C@@H](C(=O)O)CC2)cc1C(=O)N[C@@H]1[C@H]2CC[C@H](C2)[C@@H]1C(=O)NCCC1CC1	class C
COc1cc(F)c(O[C@H]2CC[C@@](C)(C(=O)O)CC2)cc1C(=O)N[C@@H]1[C@H]2CC[C@H](C2)[C@@H]1C(=O)N[C@H](C)C(C)(C)C	class A
COc1cc(F)c(O[C@H]2CC[C@@H](C(=O)O)CC2)cc1C(=O)N[C@@H]1[C@H]2CC[C@H](C2)[C@@H]1C(=O)Nc1ccnc(C(F)(F)F)c1	class C
COc1cc(C#N)c(O[C@H]2CC[C@@](C)(C(=O)O)CC2)cc1C(=O)N[C@@H]1[C@H]2CC[C@H](C2)[C@@H]1C(=O)NC1(C)CCC1	class A
COc1cc(F)c(-c2cccc(CC(=O)O)c2)cc1C(=O)N[C@@H]1CCC[C@@H]1C(=O)Nc1cccc(S(=O)(=O)C(F)(F)F)c1	class B
COc1cc(C#N)c(O[C@H]2CC[C@@](C)(C(=O)O)CC2)cc1C(=O)N[C@@H]1[C@H]2CC[C@H](C2)[C@@H]1C(=O)NC12CC3C[C@H](C1)C[C@H](C3)C2	class C
COc1cc(F)c(CC2CCC(C)(C(=O)O)CC2)cc1C(=O)NC1C2CCC(C2)C1C(=O)NCC1(C)CCC1 (stereo not shown)	class B
CCC1(CNC(=O)[C@H]2[C@@H]3CC[C@@H](C3)[C@H]2NC(=O)c2cc(O[C@H]3CC[C@@](C)(C(=O)O)CC3)c(F)cc2OC)CCC1	class A
COC[C@]1(C(=O)O)CC[C@@H](Oc2cc(C(=O)N[C@@H]3[C@H]4CC[C@H](C4)[C@@H]3C(=O)Nc3cccc(S(=O)(=O)C(F)(F)F)c3)c(OC)cc2F)CC1	class C
COc1cc(F)c(O[C@H]2CC[C@@](C)(C(=O)O)CC2)cc1C(=O)N[C@@H]1CC[C@@H]1C(=O)Nc1ccc(F)c(C(F)(F)F)c1	class C
COc1cc(F)c(-c2ccc(C(=O)O)cc2)cc1C(=O)N[C@H]1[C@@H](C(=O)Nc2cccc(S(=O)(=O)C(F)(F)F)c2)[C@@H]2C=C[C@H]1C2 (racemic) [Example 224]	class A
